// reported hAMY3R EC50 (cAMP) per item
Target: T1, hAMY3R (human, UniProt P30988)
T1 sequence 1: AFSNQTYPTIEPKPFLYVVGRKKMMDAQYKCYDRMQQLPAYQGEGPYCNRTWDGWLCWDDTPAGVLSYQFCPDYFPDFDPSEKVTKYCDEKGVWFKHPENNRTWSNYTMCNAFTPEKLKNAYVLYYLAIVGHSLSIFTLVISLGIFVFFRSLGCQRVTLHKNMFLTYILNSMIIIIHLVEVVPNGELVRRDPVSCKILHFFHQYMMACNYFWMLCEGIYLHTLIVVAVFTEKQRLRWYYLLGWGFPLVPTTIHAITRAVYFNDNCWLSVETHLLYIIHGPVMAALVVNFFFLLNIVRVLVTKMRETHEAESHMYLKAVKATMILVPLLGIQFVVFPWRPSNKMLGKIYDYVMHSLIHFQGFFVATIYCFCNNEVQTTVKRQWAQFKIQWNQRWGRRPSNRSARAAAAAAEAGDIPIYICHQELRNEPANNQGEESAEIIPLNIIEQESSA
T1 sequence 2: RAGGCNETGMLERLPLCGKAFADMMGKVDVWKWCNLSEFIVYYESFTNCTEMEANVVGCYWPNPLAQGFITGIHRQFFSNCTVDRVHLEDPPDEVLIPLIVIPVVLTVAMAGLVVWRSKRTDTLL
Assay: cell-based or functional assay
Bridge positions count the residues as written; N and C are the ends. Square brackets hold non-standard residues; d marks the D form. Ends that are not written are not given here. Hyp = O=C(O)[C@@H]1C[C@@H](O)CN1; Cit = NC(=O)NCCC[C@H](N)C(=O)O
Answer format: number, then unit.

In [3]: df
Out[3]:
                                     binder  assay_result
0  GCRFGTCTVQ[Cit]LAHQIYQFTDKDKDNVAPRTKIGPQG[Hyp]-NH2 (disulfide 2-7 (inferred); ends not checked) [SEQ ID NO: 274]      0.019 nM

Request: What measured hAMY3R EC50 (cAMP) goes with KCNTATCTVQRLAEQIYQFTDKDKDNVSPPTNVGSNG[Hyp]-NH2 (disulfide 2-7 (inferred); ends not checked) [SEQ ID NO: 66] ?
Result: 0.012 nM
